# Test details: protease stability score; higher = more stable; yeast display proteolysis, trypsin and chymotrypsin;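 further: relative to predicted unfolded state with 0 unfolded-like and 1 meaning tenfold more protease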
Quantity: protease stability score
Lab note: record the figure alone, no unit after it.

Sequence record	Recorded number
SEDEKFWEDISKIVLDLLRTGDWELSERYADPNVKVHLVIDGQELDLHGREHVVNLVRKLGADHVETEDHKFHYQGNKIRINIHGHLNINGKVQHVEFTEIWVKVDGRWYSQHHEIVFR	1.55

Enquiry: # get_value(readout='protease stability score', item= DEEEEHLRTMWEIWMHALRTGDEDFMTNLADPNVRVLILQGDKEEESHGRDELSRLLREIRIEEFTITDVRIQGDKSEADVHVVGQIDGRRTRTKIRISFIIFNGRLHSIRFEIH )
Return: 2.2

Enquiry: Bench note: what protease stability score did SEDEHLADHFLRLQRKHIDTGDEDSFDRMIDPRAKFDIDGQEFHGREWSEWVKKRFDHVHIERIITRKFHVVDGRAEFHVDYDGRLNYNGVEVRVTLKQITIIEKIDGRWYVRSESIK show?
Return: 0.656

Enquiry: Value lookup for protease stability score; key = HEVERIVEESDRHLLNSMLTGNEDELWRLLDPNARLDINGVQSIGRDEAYRVFHELLNHLRLREVDVHEMDVQGDKAHLTFKFNGDFNGKRDYLDFQVNSLKINGRWFLHSSSLI
Return: 0.529

Enquiry: Name the reported protease stability score value associated with the sequence TEDREIAKKFAEHMIHNYETGDFERILELLDPHTKIHVNGKDMHGREHWLHHLKKWGVDRIESEIRHVEIQGDKVKVDTELHYGDKTIERTVIFEKFDGRWVLREVRVD
Return: 1.12
